Target: T1, human glucose-dependent insulinotropic polypeptide receptor (GIPR), expressed on CHO-K1 cells (human, UniProt P48546 22-466)
T1 sequence (looked up): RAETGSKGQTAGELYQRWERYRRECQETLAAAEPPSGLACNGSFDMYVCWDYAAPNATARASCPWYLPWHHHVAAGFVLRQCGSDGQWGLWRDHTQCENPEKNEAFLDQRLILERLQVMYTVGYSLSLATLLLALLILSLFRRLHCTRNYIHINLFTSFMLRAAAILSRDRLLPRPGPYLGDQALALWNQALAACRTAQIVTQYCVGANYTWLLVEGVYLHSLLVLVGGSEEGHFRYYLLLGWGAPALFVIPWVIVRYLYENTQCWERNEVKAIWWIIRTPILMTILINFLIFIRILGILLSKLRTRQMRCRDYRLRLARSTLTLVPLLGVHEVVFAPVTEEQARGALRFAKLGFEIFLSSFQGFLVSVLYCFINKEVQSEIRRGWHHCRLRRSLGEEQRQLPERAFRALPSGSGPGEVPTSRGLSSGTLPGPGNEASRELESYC
Assay: cell-based or functional assay
Numbered stars: 1 amine (or outer) side, 2 acyl side, 3 side chain; on linkers, the order of the positions; unused ones are H or OH. Square brackets hold non-standard residues; d marks the D form. Primed or numbered codes have the meaning given here. Side chains are listed from the residue outwards. Ends that are not written are not given here. * marks the point of attachment. C18 = C18 fatty acid (C16-C22 fatty acids conjugated via γGlu/8-amino-3,6-dioxaoctanoic acid spacers); C18″ = C18 fatty acid moiety (of 2OEG-γGlu-C18, K*); γGlu = O=C(O)[C@H](CCC(=O)[*:2])N[*:1]; AEEA = NCCOCCOCC(=O)O; Aib = CC(C)(N)C(=O)O; MAL = maleimide
Reported Property: Ratio vs. GLP-1R
Write the number on its own, no unit after it.

Study these solved cases before continuing.
Looking up H[Aib]QGTFTSDYSK([AEEA-AEEA-γGlu-C18″])YLDYMMARDFVQWLIEGGPSSGAPPPS-NH2 [Peptide No. 5D] , I see its Ratio vs. GLP-1R listed as 8

Looking up Y[Aib]QGTFTSDYSK([AEEA-AEEA-γGlu-C18″])YLDYMMQRDFVQWLIEGGPSSGAPPPS-NH2 [Peptide No. 5-2D] , I see its Ratio vs. GLP-1R listed as 54

Looking up H[Aib]QGTFTSDYSK([AEEA-AEEA-γGlu-C18″])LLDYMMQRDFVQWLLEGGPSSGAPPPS-NH2 [Peptide No. 5-5D] , I see its Ratio vs. GLP-1R listed as 70

Looking up Y[Aib]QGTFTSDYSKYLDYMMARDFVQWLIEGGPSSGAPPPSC-NH2 [Peptide No. 5-1] , I see its Ratio vs. GLP-1R listed as 11

Looking up H[Aib]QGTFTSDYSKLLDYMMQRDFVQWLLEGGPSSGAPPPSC-NH2 [Peptide No. 5-5] , I see its Ratio vs. GLP-1R listed as 31

Looking up Y[Aib]QGTFTSDYSK([AEEA-AEEA-γGlu-C18″])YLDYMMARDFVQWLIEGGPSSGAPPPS-NH2 [Peptide No. 5-1D] , I see its Ratio vs. GLP-1R listed as 27

Looking up Y[Aib]QGTFTSDYSKYLDYMMQRDFVQWLIEGGPSSGAPPPSC-NH2 [Peptide No. 5-2] , I see its Ratio vs. GLP-1R listed as 149

Looking up H[Aib]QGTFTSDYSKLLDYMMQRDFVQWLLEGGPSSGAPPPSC([MAL-AEEA-AEEA-γGlu-C18])-NH2 [Peptide No. 5-5A] , I see its Ratio vs. GLP-1R listed as 2

Pending binder:
Looking up Y[Aib]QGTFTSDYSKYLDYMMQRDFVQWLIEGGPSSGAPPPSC-NH2 (not fully specified (residue 40)) [Peptide No. 5-2A] , I see its Ratio vs. GLP-1R listed as 2

The measured values listed here are drawn from patent US20250296960A1.
